Molecular target: OATP-1B1 (Homo sapiens)
Sequence (Q9Y6L6 whole entry): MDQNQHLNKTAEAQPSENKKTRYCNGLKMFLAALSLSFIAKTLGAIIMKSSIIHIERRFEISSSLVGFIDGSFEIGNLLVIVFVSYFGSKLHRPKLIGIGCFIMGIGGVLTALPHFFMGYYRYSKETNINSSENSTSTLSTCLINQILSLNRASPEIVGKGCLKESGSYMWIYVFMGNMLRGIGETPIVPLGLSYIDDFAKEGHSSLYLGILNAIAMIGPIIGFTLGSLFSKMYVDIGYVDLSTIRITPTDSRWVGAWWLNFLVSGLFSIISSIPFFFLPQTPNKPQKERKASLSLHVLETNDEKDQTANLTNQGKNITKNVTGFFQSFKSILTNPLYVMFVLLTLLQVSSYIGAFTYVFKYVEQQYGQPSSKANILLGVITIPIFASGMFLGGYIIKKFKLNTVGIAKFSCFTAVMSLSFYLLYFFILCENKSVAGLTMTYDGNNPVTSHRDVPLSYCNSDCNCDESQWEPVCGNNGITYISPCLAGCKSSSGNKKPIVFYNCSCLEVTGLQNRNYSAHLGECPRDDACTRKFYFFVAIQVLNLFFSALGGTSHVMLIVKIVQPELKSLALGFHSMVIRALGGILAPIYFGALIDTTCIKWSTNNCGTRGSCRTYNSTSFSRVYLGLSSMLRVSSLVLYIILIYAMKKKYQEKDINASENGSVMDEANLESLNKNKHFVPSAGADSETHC
Conditions: 25 and 50 μM, OATP-1B1 transfected cells
endpoint: Inhibition of cellular accumulation of [3H]ES (in words)

Cc1cn(-c2cc(NC(=O)c3ccc(C)c(Nc4nccc(-c5cccnc5)n4)c3)cc(C(F)(F)F)c2)cn1 | significant inhibition
Cc1ccc(Nc2nccc(N(C)c3ccc4c(C)n(C)nc4c3)n2)cc1S(N)(=O)=O | significant inhibition
